These entries and their values trace back to PubChem BioAssay AID449762.

- Assay Comment: M. tuberculosis growth inhibition, HTS (AID 449762);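 also: bacterial growth assessed after seven days of incubation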
- Test Settings: M. tuberculosis H37Rv growth inhibition, 7H9 media; at 25 µM; stronger effect = higher value
Among all 330,000 compounds or so, about 1,900 (0.58%) were called active. Roughly 4% stayed inconclusive and do not appear here. The list is a sample of the results. Results with a measured potency or affinity are listed apart.
Quantity Name: inhibition (%)
Give just the numeric value; % need not be written.

Worked cases, answers included:
- COc1ccc(NC(=O)CSc2nc3ccccc3c(=O)[nH]2)cc1S(N)(=O)=O: -3.14
- O=C(Nc1cc(=O)[nH]c2ncnn12)c1ccco1: -17.4
- CCN(CC)S(=O)(=O)c1ccc2[nH]cc(C(=O)NCCc3ccccc3)c(=O)c2c1: 4.1
- Cn1cnc(S(=O)(=O)N2CCN(c3ccc(Cl)cc3)CC2)c1: 1.05
- C=CCn1c(CCCOc2ccc(Cl)cc2Cl)nnc1SCC(=O)Nc1nccs1: -6.64
- CC1=NN(c2ccccc2)C(=O)/C1=C/c1c(O)n(-c2ccc(F)cc2)[nH]c1=O: -0.04
- CC1=NN(c2ccccc2)C(=O)/C1=C/c1c(C)[nH]n(-c2ccc(C)cc2)c1=O: 3.09
- CCN(c1ccccc1)S(=O)(=O)c1ccc(Cl)c(NC(=O)CNCc2ccccc2OC)c1: -4.74

Okay, now this molecule:
Which inhibition value is on record for COC(=O)CC(NC(=O)c1ccco1)c1cccc2ccccc12 (configuration not stated) ? -11

###

- Assay Comment: M. tuberculosis growth inhibition, HTS (AID 449762);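 also: bacterial growth assessed after seven days of incubation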
- Test Settings: M. tuberculosis H37Rv growth inhibition, 7H9 media; at 25 µM; stronger effect = higher value
The campaign covered roughly 330,000 compounds. About 1,900 (0.58%) were called active. Inconclusive results (about 4%) are left out. These entries were drawn from the full list. Entries with a potency or affinity are not part of this list.
Quantity Name: inhibition (%)
Give the number; % is assumed, so skip it.

Which value of inhibition has been reported for CC1CCC(NC(=O)c2ccc(NS(=O)(=O)c3ccc4[nH]c(=O)[nH]c4c3)cc2)CC1 (centres undefined) in the records? -6.1

Give the measured inhibition of `O=C(COc1ccccc1)NNC(=S)NC(=O)c1ccc(Cl)cc1Cl` . 55.5

# inhibition lookup, item `COCCn1c(=N)c(C(=O)NCc2ccco2)cc2c(=O)n3cc(C)ccc3nc21` 0.47

Tell me the measured inhibition of `CCCc1nc(Nc2nc3ccccc3o2)nc(C)c1C(=O)OCC` , please. -21.6

Consider the compound shown here: COc1ccc(OC)c(C(c2nnnn2C2CCCC2)N2CCN(c3ccc(F)cc3)CC2)c1 (centres undefined) What is its recorded inhibition? 4.35

Entry under review: CNC(=O)C(=O)NCC(c1cccs1)S(=O)(=O)c1ccc(F)cc1 (centres undefined) . Reported inhibition? -2.67

Bench note: what inhibition did `N#CCCn1cc(C(=O)Nc2cccc(C(=O)O)c2)c(-c2ccc(Cl)cc2)n1` show? -2.32

Which inhibition is listed for `COc1ccc(S(=O)(=O)N2CCOCC2)cc1NC(=O)CC1CCCC1` ? -1.2

Fill blank: measured inhibition of the compound `CCN1CCN(Cc2ccc(NC(=O)c3ccc(C)c(NC(=O)c4ccnnc4)c3)cc2C(F)(F)F)CC1` is ____. -1.41

# get_value(readout='inhibition', item= CC1(O)CC(c2ccc(Cl)cc2)=NN1C(=O)c1ccc(Cl)cc1 (centres undefined) ) 47.7

Requested field: inhibition. Item: COc1ccc(NS(=O)(=O)c2ccc(NC(=O)C3CCCO3)cc2)cc1 (centres undefined) -9.85
